- Study target: HLA class I molecule
- Measurement notes: HLA class I peptide binding affinity assay (inhibition of 125I-radiolabeled probe peptide binding to purified HLA)
- Design: species or system human
- Study conditions: allele A02.01; read-out: Observed Affinity (IC50; (nM))
Field: IC50. Provide a value for each of the compounds that follow.
Answers are plain numbers, in nM.

Smiles record: CC(C)C[C@H](NC(=O)[C@H](CO)NC(=O)[C@H](CCCCN)NC(=O)[C@H](CC(C)C)NC(=O)[C@@H](NC(=O)[C@H](CO)NC(=O)[C@@H]1CCCN1C(=O)[C@H](CC(C)C)NC(=O)[C@@H](N)Cc1ccccc1)[C@@H](C)O)C(=O)O
Unit descriptor: nM
IC50: 21
//
Smiles record: CC[C@H](C)[C@H](NC(=O)[C@H](CC(C)C)NC(=O)[C@H](CCC(N)=O)NC(=O)[C@@H](NC(=O)[C@@H](NC(=O)[C@H](CO)NC(=O)[C@@H](NC(=O)[C@H](CC(C)C)NC(=O)[C@@H](N)CS)[C@@H](C)O)[C@@H](C)O)C(C)C)C(=O)N[C@@H](CCSC)C(=O)O
Unit descriptor: nM
IC50: 716
//
Smiles record: CC[C@H](C)[C@H](NC(=O)[C@@H](N)CC(C)C)C(=O)N[C@@H](CCSC)C(=O)N[C@@H](CCC(N)=O)C(=O)N[C@@H](CC(C)C)C(=O)N[C@@H](CCSC)C(=O)N1CCC[C@H]1C(=O)N[C@@H](Cc1ccccc1)C(=O)NCC(=O)N[C@@H](CS)C(=O)O
Unit descriptor: nM
IC50: 177

The recorded IC50 for CC(C)[C@H](N)C(=O)N[C@H](C(=O)N1CCC[C@H]1C(=O)N[C@@H](CS)C(=O)N[C@@H](CCC(=O)O)C(=O)N1CCC[C@H]1C(=O)N1CCC[C@H]1C(=O)N[C@@H](CCC(=O)O)C(=O)N[C@H](C(=O)O)C(C)C)C(C)C is 187

###

Field: log10 of IC50. Provide a value for each of the sequences that follow.
- Study target: HLA class I molecule
- Measurement notes: HLA class I peptide binding affinity assay (inhibition of 125I-radiolabeled probe peptide binding to purified HLA)
- Set-up: species or system human
- Study conditions: allele A02.01; read-out: Observed Affinity (IC50; (nM))
- Protocol: Epstein-Barr virus (EBV)-transformed homozygous cell lines, fibroblasts, CIR, or 721.22 transfectants are used as sources of HLA class I molecules. […] HLA molecules are purified from lysates by affinity chromatography. […] Protein content is evaluated by a BCA protein assay (Pierce Chemical Co., Rockford, IL) and confirmed by SDS-PAGE. […] Since under these conditions [label]<[HLA] and IC50≥[HLA], the measured IC50 values are reasonable approximations of the true KD values. […]
Where no end group is shown, it is not given here.
Please keep in mind that the values are log10 of IC50 expressed in nM.

Example entries begin here.
Residue string: FELLPIPPL
Value: 2.74
//
Residue string: VLHECNSLYI
Value: 1.00
//
Residue string: LLQEFDVQEA
Value: 1.65

Parameter requested: log10 of IC50. Apply to each item below.
1. TLQRSSLWCL
2. QTGVMICAYL

Reply:
2.07
3.99

###

- Study target: HLA class I molecule
- Measurement notes: HLA class I peptide binding affinity assay (inhibition of 125I-radiolabeled probe peptide binding to purified HLA)
- Parameters: species or system human
- Study conditions: allele A24.02; read-out: Observed Affinity (IC50; (nM))
Where no end group is shown, it is not given here.
Field: IC50. Provide a value for each of the sequences that follow.
Numbers only, in nM.

Residue string: KGPELFPLI
Value: 14

Here is the next item to consider.
The recorded IC50 for YLVIQLQDKF is 2150

Data credit: patent US20230414735A1
